For each entry below, report its IC50 value.
# STUDY TARGET: HCV NS5B (Hepatitis C virus genotype 1b, UniProt Q9WMX2)
# Construct: The protein was expressed with an 18 amino acid C-terminal truncation to enhance the solubility; made in house; host or cells: E. coli BL21 (DE3), pET21a
# Sequence (Q9WMX2 2420-2992): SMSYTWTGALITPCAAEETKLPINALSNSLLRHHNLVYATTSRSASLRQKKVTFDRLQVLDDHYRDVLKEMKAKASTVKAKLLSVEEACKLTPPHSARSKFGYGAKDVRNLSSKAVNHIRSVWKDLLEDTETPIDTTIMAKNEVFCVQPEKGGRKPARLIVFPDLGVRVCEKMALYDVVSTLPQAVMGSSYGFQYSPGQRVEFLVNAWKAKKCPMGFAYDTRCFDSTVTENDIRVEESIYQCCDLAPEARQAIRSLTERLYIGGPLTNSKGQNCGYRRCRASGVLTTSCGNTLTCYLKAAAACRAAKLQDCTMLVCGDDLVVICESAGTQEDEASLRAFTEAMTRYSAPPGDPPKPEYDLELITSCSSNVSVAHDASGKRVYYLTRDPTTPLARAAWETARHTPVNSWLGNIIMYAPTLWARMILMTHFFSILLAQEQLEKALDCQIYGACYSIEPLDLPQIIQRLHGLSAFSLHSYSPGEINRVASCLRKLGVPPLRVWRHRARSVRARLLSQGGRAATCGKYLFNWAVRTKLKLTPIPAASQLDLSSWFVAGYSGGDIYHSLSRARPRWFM
# ASSAY NOTES: HCV NS5B RdRp enzyme assay (preincubation protocol)
# Format: biochemical
# CONDITION DETAILS: Table 1, read-out: IC50*

Example results:
Q. So what's the measured IC50 for this one? CS(=O)(=O)NC(=O)c1ccc2c(C3CCCCC3)c3n(c2c1)CC(C(=O)N1CCC(N2CCCC2=O)CC1)=Cc1ccccc1-3
A. 10 to 1000 nM

Q. Param item: O=C(O)c1ccc2c(C3CCCCC3)c3n(c2c1)CC(NC(=O)N1CCOCC1)Cc1ccccc1-3 (stereo not drawn)
A. 10 to 1000 nM

Q. Cool, now C[C@@H]1CN(C(=O)NC2Cc3ccccc3-c3c(C4CCCCC4)c4ccc(C(=O)O)cc4n3C2)C[C@H](C)O1 (stereo partly drawn) [drawing 143]
A. 10 to 1000 nM

Q. Ok, now COc1ccc2c(c1)C=C(C(=O)N(C)CC(=O)N(C)C)Cn1c-2c(C2CCCCC2)c2ccc(C(=O)NS(=O)(=O)N(C)C)cc21 [drawing 162]
A. 10 to 1000 nM

Q. // same read-out, input: CN(C)S(=O)(=O)NC(=O)c1ccc2c(C3CCCCC3)c3n(c2c1)CC(NC(=O)N1CCOCC1)Cc1ccccc1-3 (stereo not drawn) [drawing 155]
A. 10 to 1000 nM

For each listed entry, give its IC50.
1. COC(=O)c1ccc2c(C3CCCCC3)c3n(c2c1)CC(C(=O)N1CCC(N2CC[C@@H](F)C2)CC1)=Cc1ccccc1-3
2. CN(C)S(=O)(=O)NC(=O)c1ccc2c(C3CCCCC3)c3n(c2c1)CC(C(=O)N1CCC(N2CCOCC2)CC1)=Cc1cc(OCc2ccccc2)ccc1-3 [drawing 135]
3. COC(=O)c1ccc2c(C3CCCCC3)c3n(c2c1)CC(C(=O)N1CCC(N2CC[C@H](F)C2)CC1)=Cc1ccccc1-3
4. CN(C)S(=O)(=O)NC(=O)c1ccc2c(C3CCCCC3)c3n(c2c1)CC(C(=O)N1CCC(N2CC[C@H](F)C2)CC1)=Cc1ccccc1-3

A.
1: > 1000 nM; 2: 10 to 1000 nM; 3: > 1000 nM; 4: 10 to 1000 nM

The values you see were collected from patent US7473688B2.
